HSP90α (Homo sapiens): recorded IC50 for assorted compounds

mol	IC50
CCc1cc(-c2nnc(C(=O)NCCN3CCCCC3)n2-c2ccc(CN3CCN(CC4CCN(C(=O)C[C@@H]5N=C(c6ccc(Cl)cc6)c6c(sc(C)c6C)-n6c(C)nnc65)CC4)CC3)cc2)c(O)cc1O	100 to 1000 nM
Cc1sc2c(c1C)C(c1ccc(Cl)cc1)=N[C@@H](CC(=O)N1CCC(CN[C@@H](C)C(=O)N[C@H](C(=O)N3CCC[C@H]3C(=O)Nc3snnc3-c3ccccc3)C3CCCCC3)CC1)c1nnc(C)n1-2	> 1000 nM
Cc1sc2c(c1C)C(c1ccc(Cl)cc1)=N[C@@H](CC(=O)NCCOCCOc1ccc(-n3c(S)nnc3-c3cc(C(C)C)c(O)cc3O)cc1)c1nnc(C)n1-2	100 to 1000 nM

* * *

The entries below are paired with their reported IC50.
- system name: HSP90α (Homo sapiens, UniProt P07900)

compound	IC50
Cc1nn(-c2ccc(C(N)=O)c(NCCOCCOCCNC(=O)C[C@@H]3N=C(c4ccc(Cl)cc4)c4c(sc(C)c4C)-n4c(C)nnc43)c2)c2c1C(=O)CC(C)(C)C2 [Compound 21, trifluoroacetic acid]	> 1000 nM
Cc1sc2c(c1C)C(c1ccc(Cl)cc1)=N[C@@H](CC(=O)N1CCC(N3CCN(c4ccc(-n5c(O)nnc5-c5cc(C(C)C)c(O)cc5O)cc4)CC3)CC1)c1nnc(C)n1-2 [Compound 43, trifluoroacetic acid]	100 to 1000 nM
Cc1sc2c(c1C)C(c1ccc(Cl)cc1)=N[C@@H](CC(=O)NCc1ccc(CN3CCC(Cc4ccc(-n5c(O)nnc5-c5cc(C(C)C)c(O)cc5O)cc4)CC3)cc1)c1nnc(C)n1-2 [Compound 89, trifluoroacetic acid]	100 to 1000 nM
Cc1sc2c(c1C)C(c1ccc(Cl)cc1)=N[C@@H](CC(=O)NCC(=O)NCCOc1ccc(-n3c(S)nnc3-c3cc(C(C)C)c(O)cc3O)cc1)c1nnc(C)n1-2 [Compound 48]	< 100 nM
Cc1sc2c(c1C)C(c1ccc(Cl)cc1)=N[C@@H](CCN(C)CCOCCOc1ccc(-n3c(O)nnc3-c3cc(C(C)C)c(O)cc3O)cc1)c1nnc(C)n1-2 [Compound 71, trifluoroacetic acid]	100 to 1000 nM
CCc1cc(C(=O)N2Cc3ccc(CN4CCN(C(=O)C[C@@H]5N=C(c6ccc(Cl)cc6)c6c(sc(C)c6C)-n6c(C)nnc65)CC4)cc3C2)c(O)cc1O [Compound 142]	100 to 1000 nM
Cc1sc2c(c1C)C(c1ccc(Cl)cc1)=N[C@@H](CC(=O)NCCOCCOCCN[C@@H](C)C(=O)N[C@H](C(=O)N1CCC[C@H]1C(=O)Nc1snnc1-c1ccccc1)C1CCCCC1)c1nnc(C)n1-2 [Compound 128]	> 1000 nM
Cc1sc2c(c1C)C(c1ccc(Cl)cc1)=N[C@@H](CC(=O)NCC1CCN(C(=O)C3CCN(Cc4ccc(-n5c(O)nnc5-c5cc(C(C)C)c(O)cc5O)cc4)CC3)CC1)c1nnc(C)n1-2 [Compound 53, trifluoroacetic acid]	100 to 1000 nM
CCN(CC)CCNC(=O)c1nnc(-c2cc(C(C)C)c(O)cc2O)n1-c1ccc(CN2CCN(CC3CCN(C(=O)C[C@@H]4N=C(c5ccc(Cl)cc5)c5c(sc(C)c5C)-n5c(C)nnc54)CC3)CC2)cc1 [Compound 118, trifluoroacetic acid]	100 to 1000 nM
CCNC(=O)c1nnc(-c2cc(CC)c(O)cc2O)n1-c1ccc(CC2CCN(CC3CCN(C(=O)C[C@@H]4N=C(c5ccc(Cl)cc5)c5c(sc(C)c5C)-n5c(C)nnc54)CC3)CC2)cc1 [Compound 87]	100 to 1000 nM
Cc1sc2c(c1C)C(c1ccc(Cl)cc1)=N[C@@H](CC(=O)N1CCN(Cc3ccc(-n4c(O)nnc4-c4cc(C(C)C)c(O)cc4O)cc3)CC1)c1nnc(C)n1-2 [Compound 38, trifluoroacetic acid]	100 to 1000 nM
Cc1sc2c(c1C)C(c1ccc(Cl)cc1)=N[C@@H](CC(=O)NCC1CCN(C(=O)C3CCN(Cc4ccc(-n5c(O)nnc5-c5cc(C(C)C)c(O)cc5O)cc4)CC3)C1)c1nnc(C)n1-2 (some centres unmarked) [Compound 45, trifluoroacetic acid]	< 100 nM
Cc1sc2c(c1C)C(c1ccc(Cl)cc1)=N[C@@H](CC(=O)NCC(=O)NCc1ccc(-n3c(O)nnc3-c3cc(C(C)C)c(O)cc3O)cc1)c1nnc(C)n1-2 [Compound 57]	100 to 1000 nM
CCc1cc(-c2nnc(O)n2-c2ccc(CN3CCN(CC4CCN(C(=O)C[C@H]5N=C(c6ccc(Cl)cc6)c6c(sc(C)c6C)-n6c(C)nnc65)CC4)CC3)cc2)c(O)cc1O [Compound 27, trifluoroacetic acid]	100 to 1000 nM

* * *

Known pIC50 of a selection of molecules
- system name: BRD4 (BD1+BD2) (Homo sapiens, UniProt O60885)
- Construct: 1.8 μg/ml recombinant BRD4 (BD1+BD2 domains) protein
- run parameters: read-out: BRD4 Binding Potency
pIC50: −log10 of the molar value.

molecule	pIC50
Cc1sc2c(c1C)C(c1ccc(Cl)cc1)=N[C@@H](CC(=O)NCCc1ccc(CN3CCC(Cc4ccc(-n5c(O)nnc5-c5cc(C(C)C)c(O)cc5O)cc4)CC3)cc1)c1nnc(C)n1-2 [Compound 98, trifluoroacetic acid]	6.00 to 7.00
COc1cccc(-c2cc(C(=O)Nc3ccc(-c4ccc(OC5CCN(C)CC5)cc4OCCN(C)C(=O)C[C@@H]4N=C(c5ccc(Cl)cc5)c5c(sc(C)c5C)-n5c(C)nnc54)cc3)ccc2OC)c1 [Compound 136]	6.00 to 7.00
CC[C@@H](C)Nc1cc(C(=O)NC2C[C@H]3CC[C@H](C2)N3c2ccc(C(=O)Nc3ccc(CN4CCN(CC5CCN(C(=O)C[C@@H]6N=C(c7ccc(Cl)cc7)c7c(sc(C)c7C)-n7c(C)nnc76)CC5)CC4)cc3)cn2)c(C)cc1C(N)=O (stereo partly drawn) [Compound 26, formic acid]	6.00 to 7.00
